# SYSTEM_TESTED: IL-23 (human, p19/p40 heterodimer) (Homo sapiens, UniProt Q9NPF7;P29460 SEQ:20-189,SEQ:23-328)
# Sequence (Q9NPF7 20-189, chain 1 of 2): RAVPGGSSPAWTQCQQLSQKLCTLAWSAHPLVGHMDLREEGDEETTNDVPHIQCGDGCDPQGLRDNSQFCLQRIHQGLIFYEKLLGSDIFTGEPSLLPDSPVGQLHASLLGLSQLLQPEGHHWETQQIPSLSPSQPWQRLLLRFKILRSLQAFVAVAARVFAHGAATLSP
# Sequence (P29460 23-328, chain 2 of 2): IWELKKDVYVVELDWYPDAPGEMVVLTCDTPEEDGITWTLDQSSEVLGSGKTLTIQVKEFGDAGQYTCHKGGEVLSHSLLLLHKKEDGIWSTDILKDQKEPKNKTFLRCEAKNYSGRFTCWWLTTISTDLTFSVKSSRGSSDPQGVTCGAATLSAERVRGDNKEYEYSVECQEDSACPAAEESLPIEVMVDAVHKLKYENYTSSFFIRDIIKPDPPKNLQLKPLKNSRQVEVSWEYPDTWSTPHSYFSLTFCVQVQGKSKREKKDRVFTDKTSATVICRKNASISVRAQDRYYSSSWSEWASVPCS
# PROTOCOL_TEXT: filter; 100 nM IL-23
# TEST_CONDITIONS: tags: R&D Systems, carrier free
binding signal values by entry

Would you please look over these solved cases?
GGAGGCGCCACGCUGAGUAUAGACGGAAGCUCCGCCUCC (ssRNA, 2'-F C,U) [C11.2]    2.3 +/- ratio
GGAAUCAUACCGAGAGGUAUUACCCCGAAAGGGGACCAUUCC (ssRNA, 2'-F C,U) [Type 2.1]    5.2 +/- ratio
GGAAUCAUACACAAGAGUGUAUUACCCCCAACCCAGGGGGACCAUUCC (ssRNA, 2'-F C,U) [D9.1]    3.9 +/- ratio
A10.min1 (ssRNA, 2'-F C,U) RNA: GGAGAUCAUACACAAGAAGUUUUUUGUGCUCUGAGUACUCAGCGUCCGUAAGGGAUCUCC    3.1 +/- ratio
GGAUACCCGAGAGGGCUGGCGAAAGCCUCGGCGAGAGCUAUCC (ssRNA, 2'-F C,U) [Type 1.3]    0.6 +/- ratio

Report binding signal, nothing else, for this binder: C11.1 (ssRNA, 2'-F C,U) RNA: GGAAGAAUGGUCGGAAUCUCUGGCGCCACGCUGAGUAUAGACGGAAGCUCCGCCAGA
3.5 +/- ratio

Please give measured binding signal of the following entry: GGAUCAUACACAAGAAGUGCUUCACGAAAGUGACGUCGAAUAGAUCC (ssRNA, 2'-F C,U) [B10.min3]
0.8 +/- ratio

Kindly indicate its recorded binding signal. Item: GGAGUCUGAGUACUCAGCGUCCGUAAGGGAUAUGCUCCGCCAGACUCC (ssRNA, 2'-F C,U) [A10.min2]
6 +/- ratio

Report binding signal, nothing else, for this binder: GGAGUCUGAGUACUCAGCGUCCCGAGAGGGGAUAUGCUCCGCCAGACUCC (ssRNA, 2'-F C,U) [A10.min4]
0.7 +/- ratio

// Input: GGCAUACGCGAGAGCGCUGGCGAAAGCCUCGGCCGAGAGGCUAUGCC (ssRNA, 2'-F C,U) [Type 1.2] . Output its binding signal only.
0.7 +/- ratio

// Input: B10.min1 (ssRNA, 2'-F C,U) RNA: GGAGCGAAUCAUACACAAGAAGUGCUUCAUGCGGCAAACUGCAUGACGUCGAAUAGAUAUGCUCC . Output its binding signal only.
33.9 +/- ratio

Give the measured binding signal for C10.1 (ssRNA, 2'-F C,U) RNA: GGACACAAGAGAUGUAUUCAGGCGGUCCGCAUUGAUGUCAGUUAUGCGUAGCUCCGCC
4.4 +/- ratio

Name the recorded binding signal of the item GGCAUACACGAGAGUGCUGUCGAAAGACUCGGCCGAGAGGCUAUGCC (ssRNA, 2'-F C,U) [Type 1.1] in your answer.
0.9 +/- ratio

Return the recorded binding signal value; entry: GGUUAAAUCUCAUCGUCCCCGUUUGGGGAU (ssRNA, 2'-F C,U) [F11.min1]
0.6 +/- ratio
